The origin of these recorded values is ChEMBL document CHEMBL4130363.

- test.target: Kappa-type opioid receptor (Homo sapiens) (UniProt P41145)
- Sequence (P41145 whole entry): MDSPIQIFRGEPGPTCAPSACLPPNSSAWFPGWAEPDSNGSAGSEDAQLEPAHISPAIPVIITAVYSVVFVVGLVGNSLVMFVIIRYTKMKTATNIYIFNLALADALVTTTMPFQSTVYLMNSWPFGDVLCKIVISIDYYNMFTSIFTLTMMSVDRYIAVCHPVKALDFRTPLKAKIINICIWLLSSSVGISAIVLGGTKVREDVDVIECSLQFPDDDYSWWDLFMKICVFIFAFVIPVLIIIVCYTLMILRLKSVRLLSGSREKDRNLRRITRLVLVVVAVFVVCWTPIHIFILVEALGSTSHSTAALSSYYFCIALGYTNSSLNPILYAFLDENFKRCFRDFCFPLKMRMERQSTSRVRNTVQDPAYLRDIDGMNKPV
- test.details: Antagonist activity at human kappa-type opioid receptor assessed as inhibition of agonist-induced effect at 10 uM by GTPgamma[35S] binding-based assay
- Format: functional
Listing of entries alongside the reported inhibition.

| structure.notation | inhibition, % |
| --- | --- |
| COc1cccc(C(=O)NCCCN(C)Cc2ccccc2)c1 | 4 |
| CN(CCNC(=O)c1ccc(C#N)cc1)Cc1ccccc1 | 9 |
| CCCc1ccc(C(=O)NCCCN(C)Cc2ccccc2)cc1 | 26 |
| CN(CCCNC(=O)c1ccc(Cl)cc1)CCc1ccccc1 | 26 |
| CN(CCNC(=O)c1ccc([N+](=O)[O-])cc1)Cc1ccccc1 | 23 |
| COc1ccc(C(=O)NCCCN(C)Cc2ccccc2)cc1 | 23 |
| CN(CCCNC(=O)c1ccc(Cl)cc1)Cc1ccccc1 | 24 |
| CN(CCCNC(=O)c1ccc(C(F)(F)F)cc1)Cc1ccccc1 | 28 |
| CN(CCNC(=O)c1ccc(Cl)cc1)Cc1ccccc1 | 40 |
| CN(CCCNC(=O)c1cccc(Br)c1)Cc1ccccc1 | 26 |
| CN(CCCNC(=O)c1ccc(Br)cc1)Cc1ccccc1 | 22 |
| CN(CCCNC(=O)c1ccc([N+](=O)[O-])cc1)Cc1ccccc1 | 21 |
